solubility kinetic values for the compounds below.
test description: Aqueous kinetic solubility in PBS pH 7.4
Assay type: physicochemical
condition label: 25 °C, pH 7.4, aqueous buffer, kinetic from dmso stock; Table 10; read-out: Aq. Kinetic Solubility

compound | solubility kinetic
O=C(c1ccccc1S(=O)(=O)C1CCCC1)N1CCN(c2nc3ccc(F)cc3s2)CC1 [c-pentyl] | < 1 µM
CCCS(=O)(=O)c1ccccc1C(=O)N1CCN(c2nc3ccc(F)cc3s2)CC1 [CH2CH2CH3] | < 1 µM
CCCCS(=O)(=O)c1ccccc1C(=O)N1CCN(c2nc3ccc(F)cc3s2)CC1 [CH2CH2CH2CH3] | < 1 µM
